Entries annotated with measured composite z-score
# target-under-test: Neurogenic locus notch homolog protein 2 (Homo sapiens) (UniProt Q04721)
# Sequence (Q04721 whole entry, looked up): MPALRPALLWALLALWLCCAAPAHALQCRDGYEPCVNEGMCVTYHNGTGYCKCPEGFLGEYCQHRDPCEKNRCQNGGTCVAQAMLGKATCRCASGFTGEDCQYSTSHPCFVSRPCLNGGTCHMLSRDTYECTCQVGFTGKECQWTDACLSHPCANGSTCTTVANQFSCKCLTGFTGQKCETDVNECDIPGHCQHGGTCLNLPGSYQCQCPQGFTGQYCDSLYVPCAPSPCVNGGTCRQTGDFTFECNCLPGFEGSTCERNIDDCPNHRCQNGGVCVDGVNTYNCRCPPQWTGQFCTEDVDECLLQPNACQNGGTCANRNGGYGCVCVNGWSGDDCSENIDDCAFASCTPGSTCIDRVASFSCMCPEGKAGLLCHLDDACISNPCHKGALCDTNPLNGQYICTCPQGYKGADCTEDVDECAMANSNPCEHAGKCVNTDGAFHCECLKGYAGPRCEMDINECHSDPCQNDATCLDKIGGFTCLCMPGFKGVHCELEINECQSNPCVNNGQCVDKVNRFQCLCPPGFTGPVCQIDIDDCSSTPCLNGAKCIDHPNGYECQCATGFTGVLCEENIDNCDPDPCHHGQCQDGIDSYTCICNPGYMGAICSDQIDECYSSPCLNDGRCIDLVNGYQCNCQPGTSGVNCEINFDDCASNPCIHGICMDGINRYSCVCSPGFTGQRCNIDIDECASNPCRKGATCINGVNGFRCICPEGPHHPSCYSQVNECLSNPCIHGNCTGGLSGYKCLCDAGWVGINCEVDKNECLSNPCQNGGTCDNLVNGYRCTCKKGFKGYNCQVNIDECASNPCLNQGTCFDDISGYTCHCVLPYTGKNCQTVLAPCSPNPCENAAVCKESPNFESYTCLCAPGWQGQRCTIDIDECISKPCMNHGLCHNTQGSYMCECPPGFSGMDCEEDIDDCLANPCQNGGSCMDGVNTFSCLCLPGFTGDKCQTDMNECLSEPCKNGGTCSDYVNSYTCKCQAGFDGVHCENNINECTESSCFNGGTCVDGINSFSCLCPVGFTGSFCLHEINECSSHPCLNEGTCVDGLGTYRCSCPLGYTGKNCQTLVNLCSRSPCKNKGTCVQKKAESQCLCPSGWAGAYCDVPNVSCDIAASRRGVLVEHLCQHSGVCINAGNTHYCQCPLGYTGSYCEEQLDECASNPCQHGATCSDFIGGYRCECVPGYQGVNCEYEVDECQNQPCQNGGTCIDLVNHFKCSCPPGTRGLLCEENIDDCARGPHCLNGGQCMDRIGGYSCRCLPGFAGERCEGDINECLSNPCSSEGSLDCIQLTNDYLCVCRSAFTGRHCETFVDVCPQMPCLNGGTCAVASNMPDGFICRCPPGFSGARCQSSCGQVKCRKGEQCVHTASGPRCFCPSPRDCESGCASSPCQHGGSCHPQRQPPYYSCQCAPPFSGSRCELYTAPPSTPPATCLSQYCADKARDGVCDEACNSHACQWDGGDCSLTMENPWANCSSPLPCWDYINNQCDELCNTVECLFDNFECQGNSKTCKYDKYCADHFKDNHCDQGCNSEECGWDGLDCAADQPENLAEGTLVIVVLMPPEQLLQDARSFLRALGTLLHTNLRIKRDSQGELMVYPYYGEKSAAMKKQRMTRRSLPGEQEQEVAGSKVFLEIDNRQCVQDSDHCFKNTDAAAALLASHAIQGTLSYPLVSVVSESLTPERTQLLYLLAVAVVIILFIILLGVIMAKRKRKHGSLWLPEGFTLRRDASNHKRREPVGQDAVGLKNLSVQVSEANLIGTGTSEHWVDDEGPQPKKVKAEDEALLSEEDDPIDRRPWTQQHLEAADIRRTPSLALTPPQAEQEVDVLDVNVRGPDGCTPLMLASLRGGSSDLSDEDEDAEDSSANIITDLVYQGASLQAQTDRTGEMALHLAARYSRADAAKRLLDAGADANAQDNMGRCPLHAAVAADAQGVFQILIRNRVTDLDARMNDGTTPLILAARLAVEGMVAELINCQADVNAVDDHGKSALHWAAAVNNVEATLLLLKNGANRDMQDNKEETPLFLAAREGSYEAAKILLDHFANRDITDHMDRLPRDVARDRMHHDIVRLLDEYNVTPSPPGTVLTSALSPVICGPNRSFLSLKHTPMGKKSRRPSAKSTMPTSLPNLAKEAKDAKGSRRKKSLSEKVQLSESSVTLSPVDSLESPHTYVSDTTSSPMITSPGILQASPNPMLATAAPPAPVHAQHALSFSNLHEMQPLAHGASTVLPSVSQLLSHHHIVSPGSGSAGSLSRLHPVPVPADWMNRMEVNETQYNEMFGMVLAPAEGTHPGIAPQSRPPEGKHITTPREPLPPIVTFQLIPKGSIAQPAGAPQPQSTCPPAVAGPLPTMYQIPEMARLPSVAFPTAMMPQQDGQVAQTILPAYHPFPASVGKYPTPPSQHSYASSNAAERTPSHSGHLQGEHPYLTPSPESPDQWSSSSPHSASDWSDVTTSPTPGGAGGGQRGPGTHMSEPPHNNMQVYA
# test-description: Notch2 binders on small-molecule microarrays, primary screen, biochemical, small-molecule microarray, 635 nm fluorescence, stem cell growth factors (AID 1073)
# test-settings: Notch2 binding, higher = more signal
property-label: composite z-score

In [3]: df
Out[3]:
                                   compound                         target_under_test  number
0  O=C(NCC(O)CO)[C@@]1(CCS(=O)(=O)c2ccccc2)COC(c2ccc(OCCCO)cc2)=N1 (stereo partly drawn)  Neurogenic locus notch homolog protein 2 (Homo sapiens) (UniProt Q04721)    1.45
1  CCCCCN1CC=CC23O[C@@H]4C=CCOC(=O)[C@@H]4[C@H]2C(=O)N(CCO)[C@@H]3C1=O (stereo partly drawn)  Neurogenic locus notch homolog protein 2 (Homo sapiens) (UniProt Q04721)   -1.27
2  Cc1ccc(F)cc1S(=O)(=O)N[C@@H]1CCN(Cc2cccc3[nH]ccc23)C1  Neurogenic locus notch homolog protein 2 (Homo sapiens) (UniProt Q04721)    0.37

Source: PubChem BioAssay
